molecular target: human MRGPRD (Homo sapiens, UniProt Q8TDS7); test: MRGPRD antagonist activity, IP-One HTRF assay in CHO cells stably expressing human MRGPRD (versus 100 μM β-Alanine agonist)
Sequence (Q8TDS7 whole entry): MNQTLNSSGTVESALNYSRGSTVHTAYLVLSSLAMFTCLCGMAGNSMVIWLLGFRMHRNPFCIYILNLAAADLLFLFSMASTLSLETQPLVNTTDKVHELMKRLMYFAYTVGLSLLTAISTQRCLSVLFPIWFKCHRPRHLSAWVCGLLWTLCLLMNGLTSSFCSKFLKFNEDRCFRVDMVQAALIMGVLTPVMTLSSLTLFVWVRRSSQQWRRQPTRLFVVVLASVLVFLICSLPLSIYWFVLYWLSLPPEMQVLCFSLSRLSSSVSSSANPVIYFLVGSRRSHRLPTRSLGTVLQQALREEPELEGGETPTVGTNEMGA
Readings of IC50 for the listed compounds

Completed entries (count: 10):
- CN(C)c1ccc(NC(=O)N2CCC[C@H](c3nc(-c4ccccc4)c4ccccn34)C2)cc1: 1 to 3 µM
- CCn1cc(CNC(=O)N2CCC[C@@H](c3nc(-c4cccc(OC)c4)c4ccccn34)C2)cn1: < 0.1 µM
- CN(C)c1ccc(NC(=O)N2CCC[C@@H](c3nc(-c4cccc(C#N)c4)c4ccccn34)C2)cc1: 0.5 to 1 µM
- COc1cccc(-c2nc(C3CCCN(C(=O)c4ccccc4F)C3)n3ccccc23)c1 (stereo not drawn): 0.5 to 1 µM
- COc1cccc(-c2nc(C3CCCN(C(=O)N(C)c4ccccc4)C3)n3ccccc23)c1 (stereo not drawn): 1 to 3 µM
- COc1cccc(-c2nc(C3CCCN(C(=O)Nc4cc(OC)c(OC)c(OC)c4)C3)n3ccccc23)c1 (stereo not drawn): < 0.1 µM
- COc1cccc(-c2nc([C@@H]3CCCN(C(=O)NCCN4CCCCC4)C3)n3ccccc23)c1: 0.5 to 1 µM
- COc1cccc(-c2nc([C@@H]3CCCN(C(=O)Nc4cccc(CO)c4)C3)n3ccccc23)c1: < 0.1 µM
- COc1cccc(-c2nc(C3CCCN(C(=O)Nc4ccc(F)cc4)C3)n3ccccc23)c1 (stereo not drawn): 0.1 to 0.5 µM
- CN(C)C(=O)c1cccc(-c2nc([C@@H]3CCCN(C(=O)Nc4ccc(N(C)C)cc4)C3)n3ccccc23)c1: < 0.1 µM

Problem: Assign IC50 to the following record: CN(C)c1ccc(NC(=O)N2CCC[C@@H](c3nc(-c4ccccc4C(F)F)c4ccccn34)C2)cc1
Solution: 1 to 3 µM

Problem: Assign IC50 to the following record: CC(=O)c1ccc(-c2nc([C@@H]3CCCN(C(=O)Nc4ccc(N(C)C)cc4)C3)n3ccccc23)s1
Solution: 0.5 to 1 µM

Problem: Assign IC50 to the following record: COc1ccccc1-c1nc([C@@H]2CCCN(C(=O)Nc3ccc(N(C)C)cc3)C2)n2ccccc12
Solution: 0.5 to 1 µM

Problem: Assign IC50 to the following record: COc1cccc(-c2nc([C@@H]3CCCN(C(=O)N[C@H]4CC[C@H](O)CC4)C3)n3ccccc23)c1
Solution: < 0.1 µM

Problem: Assign IC50 to the following record: CN(C)c1ccc(NC(=O)N2CCC[C@@H](c3nc(-c4ccc(C(F)(F)F)cc4)c4ccccn34)C2)cc1
Solution: 1 to 3 µM

Problem: Assign IC50 to the following record: COc1cccc(-c2nc([C@@H]3CCCN(C(=O)Nc4cccc(C(C)=O)c4)C3)n3ccccc23)c1
Solution: < 0.1 µM

Problem: Assign IC50 to the following record: COc1cccc(-c2nc(C3CCCN(C(=O)Nc4ccc(OC)cc4C)C3)n3ccccc23)c1 (stereo not drawn)
Solution: 0.1 to 0.5 µM

Problem: Assign IC50 to the following record: COc1cccc(-c2nc([C@@H]3CCCN(C(=O)Nc4cccc(F)c4)C3)n3ccccc23)c1
Solution: 0.1 to 0.5 µM

Problem: Assign IC50 to the following record: COc1ccccc1-c1nc([C@H]2CCCN(C(=O)Nc3ccc(N(C)C)cc3)C2)n2ccccc12
Solution: > 3 µM

Problem: Assign IC50 to the following record: COc1cccc(-c2nc([C@@H]3CCCN(C(=O)Nc4ccc(C)c(C)c4)C3)n3ccccc23)c1
Solution: 0.1 to 0.5 µM

Problem: Assign IC50 to the following record: COc1cccc(-c2nc([C@@H]3CCCN(C(=O)Nc4ccc(C)cc4F)C3)n3ccccc23)c1
Solution: 0.1 to 0.5 µM

Problem: Assign IC50 to the following record: CN(C)c1ccc(NC(=O)N2CCC[C@@H](c3nc(-c4cccc(Cl)c4)c4ccccn34)C2)cc1
Solution: 0.5 to 1 µM

Problem: Assign IC50 to the following record: COc1cccc(-c2nc(C3CCCN(C(=O)Nc4ccccc4F)C3)n3cccc(OC)c23)c1 (stereo not drawn)
Solution: > 3 µM
